Reference source: paper PMC9887116

target: human recombinant SV2A (hSV2A) (Homo sapiens, UniProt Q7L0J3); experiment: in vitro radioligand binding study using human recombinant SV2A; conditions: read-out: half maximal inhibitory concentration (IC50)
Sequence (Q7L0J3 whole entry): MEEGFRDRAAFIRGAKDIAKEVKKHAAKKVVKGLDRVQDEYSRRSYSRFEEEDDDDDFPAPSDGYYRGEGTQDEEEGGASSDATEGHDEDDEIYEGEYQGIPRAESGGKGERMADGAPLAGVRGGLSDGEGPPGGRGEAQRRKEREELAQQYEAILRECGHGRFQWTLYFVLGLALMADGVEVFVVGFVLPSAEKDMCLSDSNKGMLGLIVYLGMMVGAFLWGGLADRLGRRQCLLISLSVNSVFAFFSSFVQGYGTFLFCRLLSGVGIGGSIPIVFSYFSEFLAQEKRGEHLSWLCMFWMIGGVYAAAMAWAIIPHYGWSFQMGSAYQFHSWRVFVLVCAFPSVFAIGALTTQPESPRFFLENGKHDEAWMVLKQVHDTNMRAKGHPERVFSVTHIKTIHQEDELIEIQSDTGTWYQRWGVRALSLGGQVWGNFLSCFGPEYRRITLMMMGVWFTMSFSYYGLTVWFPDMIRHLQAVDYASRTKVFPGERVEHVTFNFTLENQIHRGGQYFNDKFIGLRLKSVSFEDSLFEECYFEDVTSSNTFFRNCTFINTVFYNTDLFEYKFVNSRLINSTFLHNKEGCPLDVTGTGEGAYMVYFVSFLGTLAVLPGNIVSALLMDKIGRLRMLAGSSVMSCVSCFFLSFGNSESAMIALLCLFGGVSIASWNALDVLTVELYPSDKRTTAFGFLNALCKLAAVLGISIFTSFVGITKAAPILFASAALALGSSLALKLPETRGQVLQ

ITEM_SMILES: O=C1C[C@H](c2cc(F)c(F)c(F)c2)CN1Cn1ncnc1Cl
UNIT_ABBREVIATION: nM
IC50: 13
